The values you see were collected from patent US20200283478A1.

# Assayed Target: T1, His-tagged, full-length PCSK9 (human, UniProt Q8NBP7 31-692)
# T1 construct: secreted PCSK9 is autocatalytically cleaved into prodomain and catalytic domain + CRD (from S153), which stay associated; also called His-PCSK9; proprotein convertase subtilisin/kexin type 9; not shown: His tag
# T1 sequence (Q8NBP7 31-692 limits assumed): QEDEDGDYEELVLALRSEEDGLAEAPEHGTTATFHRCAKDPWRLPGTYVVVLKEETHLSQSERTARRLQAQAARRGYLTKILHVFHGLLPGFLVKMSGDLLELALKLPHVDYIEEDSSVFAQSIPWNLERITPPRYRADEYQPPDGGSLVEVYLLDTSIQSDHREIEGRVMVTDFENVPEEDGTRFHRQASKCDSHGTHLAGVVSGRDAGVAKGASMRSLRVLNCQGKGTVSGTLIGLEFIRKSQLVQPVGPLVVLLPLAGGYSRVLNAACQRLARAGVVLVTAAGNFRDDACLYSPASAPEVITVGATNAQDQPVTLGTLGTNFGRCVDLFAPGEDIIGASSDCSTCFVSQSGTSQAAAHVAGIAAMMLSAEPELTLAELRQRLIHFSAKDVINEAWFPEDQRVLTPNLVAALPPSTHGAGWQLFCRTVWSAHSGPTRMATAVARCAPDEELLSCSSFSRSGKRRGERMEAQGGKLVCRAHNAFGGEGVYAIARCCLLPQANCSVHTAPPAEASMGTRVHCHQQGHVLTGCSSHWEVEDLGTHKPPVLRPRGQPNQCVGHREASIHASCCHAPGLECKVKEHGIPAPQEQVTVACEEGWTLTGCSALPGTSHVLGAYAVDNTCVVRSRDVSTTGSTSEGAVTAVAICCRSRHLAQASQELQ
# Protocol Text: TR-FRET competition (PCSK9/EGF(A) assay); competitor EGF(A)-Fc;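 note: proximity signal from anti-His APC on PCSK9 paired with anti-Fc europium on the Fc ligand, read as normalized TR-FRET ratio across compound dilutions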
Bridge positions count the residues as written; N and C are the ends.
Measured Quantity: IC50

Ask: What value of IC50 has been recorded for this entry: Ac-CRLPWNLQRIGLAC-NH2 (disulfide 1-14; SMILES CC[C@H](C)[C@@H]1NC(=O)[C@H](CCCNC(=N)N)NC(=O)[C@H](CCC(N)=O)NC(=O)[C@H](CC(C)C)NC(=O)[C@H](CC(N)=O)NC(=O)[C@H](Cc2c[nH]c3ccccc23)NC(=O)[C@@H]2CCCN2C(=O)[C@H](CC(C)C)NC(=O)[C@H](CCCNC(=N)N)NC(=O)[C@@H](NC(C)=O)CSSC[C@@H](C(N)=O)NC(=O)[C@H](C)NC(=O)[C@H](CC(C)C)NC(=O)CNC1=O) [Compound 68 (Ac-CRLPWNLQRIGLAC-NH2)]
Reply: > 50 µM
